# Tested on: U2OS
# Assay Notes: cell viability relative to DMSO; higher = less toxic
# Experimental Conditions: 72 h; 10000 nM
Recorded cell viability values for a group of compounds are listed next.
Return type: number; implicit unit %.

Worked cases, cell viability given:
Compound | Measurement
Cc1onc(O)c1C[C@@H](N)C(=O)O (racemic) [AMPA-(RS)] | 102
O=C(Nc1ccccc1)OCC(CN1CCCCC1)OC(=O)Nc1ccccc1 (centres undefined) [diperodon] | 94.4
Cc1sc2c(c1C)C(c1ccc(Cl)cc1)=N[C@@H](CC(=O)Nc1ccc(O)cc1)c1nnc(C)n1-2 [OTX015] | 38.8

Input line: # get_value(readout='cell viability', item= COc1cc2c(NC3CCN(C)CC3)nc(N3CCCN(C)CC3)nc2cc1OCCOCCN(C)C [UNC0321] )
Output line: 97.6

Input line: Reported cell viability for Cc1sc(C)c2c1CCC=C2c1c[nH]cn1 [TC-G-1000] : what is it?
Output line: 97

Input line: Any idea what cell viability was measured for Sc1ncnc2nc[nH]c12 [mercaptopurine] ?
Output line: 65.1

Input line: I am curious: what cell viability value has been reported for COCC(=O)O[C@]1(CCN(C)CCCc2nc3ccccc3[nH]2)CCc2cc(F)ccc2[C@@H]1C(C)C [mibefradil] ?
Output line: 65.6

Input line: What does the data say about its cell viability? Entry: Oc1ccc(Cl)c2c1CCC2 [chlorindanol]
Output line: 98.9

Input line: # cell viability lookup, item N[C@H]1C(O)O[C@H](CO)[C@@H](O)[C@@H]1O (mixture of isomers) [glucosamine]
Output line: 95.7

Input line: I have this compound here, CN(C)CCOC(c1ccccc1)c1ccccc1.Cn1c(=O)c2[nH]c(Cl)nc2n(C)c1=O [dimenhydrinate] , and I need its recorded cell viability.
Output line: 106

Input line: Endpoint output: cell viability of CC(CCc1ccc(O)cc1)NCCc1ccc(O)c(O)c1 (centres undefined) [dobutamine] . Value?
Output line: 98

---

Recorded cell viability by entry
# System: HepG2
# Assay Notes: cell viability relative to DMSO; higher = less toxic
# Experimental Conditions: 72 h; 1000 nM
Answer with a number only, understood to be in %.

Reference set (9 entries):
Molecule | System Tested | Property Measured | Measurement
CCCCOc1ccc(CC/C=C2\SC(=O)N(CCN)C2=O)cc1 [K145] | HepG2 | cell viability | 95.4
CC(=O)c1ccc2c(c1)[C@H](NC(=O)c1ccc(F)c(Cl)c1)[C@H](O)C(C)(C)O2 [tonabersat] | HepG2 | cell viability | 97.9
CO[C@H]1/C=C/O[C@@]2(C)Oc3c(C)c(O)c4c(O)c(c(/C=N/N5CCN(C6CCCC6)CC5)c(O)c4c3C2=O)NC(=O)/C(C)=C\C=C\[C@H](C)[C@H](O)[C@@H](C)[C@@H](O)[C@@H](C)[C@H](OC(C)=O)[C@@H]1C [rifapentine] | HepG2 | cell viability | 97.7
c1cnc(SCc2cccnc2)nc1 [tasuldine] | HepG2 | cell viability | 106
COc1cccc2c1C(=O)c1c(O)c3c(c(O)c1C2=O)C[C@@](O)(C(C)=O)C[C@@H]3O[C@H]1C[C@H](N)[C@H](O)[C@H](C)O1 [daunorubicin] | HepG2 | cell viability | 2
OC[C@@H](O)[C@@H](O)[C@@H](O)CO [ribitol] | HepG2 | cell viability | 100
CSCC[C@H](NC(=O)[C@H](CC(C)C)NC(=O)CNC(=O)[C@H](Cc1ccccc1)NC(=O)[C@H](Cc1ccccc1)NC(=O)[C@H](CCC(N)=O)NC(=O)[C@H](CCC(N)=O)NC(=O)[C@@H]1CCCN1C(=O)[C@H](CCCCN)NC(=O)[C@@H]1CCCN1C(=O)[C@@H](N)CCCN=C(N)N)C(N)=O [substance-P] | HepG2 | cell viability | 107
CCOc1ccc(S(=O)(=O)O)c2cccnc12 [actinoquinol] | HepG2 | cell viability | 98.5
COc1cc(OC)c(NC(=O)Nc2cc(C)on2)cc1Cl | HepG2 | cell viability | 110

Kindly review the next molecule as well.
Input line: Query (molecule): COCC1=C(C(=O)O)N2C(=O)[C@@H](NC(=O)/C(=N\OC)c3csc(N)n3)[C@H]2SC1 [cefpodoxime] ; field requested: cell viability
Output line: 101

---

# Test system: Calu-3
# Assay Notes: relative viability EC50 (midpoint between 100% and the lowest measured viability); higher = less toxic
# Experimental Conditions: 72 h
Form field: relative viability EC50 (one value per entry).

Compound | relative viability EC50
S=C(NCCc1ccccn1)Nc1ccc(Br)cn1 | > 10 µM
O=C(O)c1ccc(N2N=C(Cc3ccccc3)/C(=C\c3ccc(-c4ccccc4F)o3)C2=O)cc1 | > 10 µM
CN(C)CC[C@H](CSc1ccccc1)Nc1ccc(S(=O)(=O)NC(=O)c2ccc(N3CCN(Cc4ccccc4-c4ccc(Cl)cc4)CC3)cc2)cc1[N+](=O)[O-] | 2.52 µM
C[C@]12CC[C@@H](O)C[C@H]1CC[C@@H]1[C@@H]2CC[C@]2(C)C(=O)CC[C@@H]12 [3-alpha-hydroxy-5-beta-androstan-17-one] | > 10 µM
COCCCOc1ccnc(C[S+]([O-])c2nc3ccccc3[nH]2)c1C (configuration not stated) | > 10 µM

Input line: Would you kindly share the measured relative viability EC50 for `Nc1c2c(nc3c1CCC3)CCCC2` ?
Output line: > 10 µM

Input line: Data request, read-out relative viability EC50, for `CC(C)(Cc1ccc2ccccc2c1)NC[C@@H](O)COc1cccc(Cl)c1C#N`
Output line: 3.32 µM

Input line: Would you mind telling me what relative viability EC50 value was observed for CC(C)(C)C(=O)OCC(=O)[C@H]1CC[C@H]2[C@@H]3CCC4=CC(=O)CC[C@]4(C)[C@H]3CC[C@]12C [desoxycorticosterone-pivalate] ?
Output line: > 10 µM

Input line: Given the compound `N#C/C(=C\c1ccc(O)c(O)c1)C(=O)OCCc1cccs1` , what is its reported relative viability EC50?
Output line: > 10 µM

Input line: Query (compound): `Fc1ccc(-n2cc(CCCCN3CCC4(CC3)OCc3ccccc34)c3ccccc32)cc1` ; field requested: relative viability EC50
Output line: 3.44 µM

Input line: Item under review: `CC(C)S(=O)(=O)NC[C@H](C)c1ccc(-c2ccc(CCNS(C)(=O)=O)cc2)cc1` . Reported relative viability EC50?
Output line: > 10 µM

Input line: What does the data say about its relative viability EC50? Entry: CCN(CC)CCNC(=O)COc1ccc(OC)cc1 [mefexamide]
Output line: > 10 µM

Input line: I have this compound here, `O=C(/C=C/c1ccc(O)c(O)c1)O[C@H](Cc1ccc(O)c(O)c1)C(=O)O` , and I need its recorded relative viability EC50.
Output line: > 10 µM

Input line: Fill in the blank: the reported relative viability EC50 of `CCOC(=O)c1ccc(C#Cc2ccc3c(c2)C(C)(C)CCS3)nc1` is ____.
Output line: > 10 µM

Input line: Which relative viability EC50 value belongs to CC1Nc2ccc(Cl)cc2S(=O)(=O)N1 (configuration not stated) ?
Output line: > 10 µM

Input line: Look up relative viability EC50: `NC(=S)N/N=C/c1coc2ccccc2c1=O.[Cl][Cu][Cl]`
Output line: > 10 µM

Input line: Could you tell me which relative viability EC50 is on file for `CCCN1CCCC[C@H]1C(=O)Nc1c(C)cccc1C` ?
Output line: > 10 µM

---

# System: Caco-2
# Assay Notes: drug sensitivity score (DSS) for viability; higher = more toxic; extreme values may be limits of the assay
# Experimental Conditions: 72 h
Where a name gives a salt, the structure may show the parent alone.
Property Measured: drug sensitivity score
Lab note: record the figure alone, no unit after it.

Some molecules with recorded drug sensitivity score:
Molecule | System Tested | drug sensitivity score
CC(C)(C)C(=O)OCC(=O)[C@H]1CC[C@H]2[C@@H]3CCC4=CC(=O)CC[C@]4(C)[C@H]3CC[C@]12C [desoxycorticosterone-pivalate] | Caco-2 | 0
Nc1nc(-c2ccc(Cl)c(Cl)c2)c(-c2ccncc2)s1 [CGH2466] | Caco-2 | 0
COCCCOc1ccnc(C[S+]([O-])c2nc3ccccc3[nH]2)c1C (stereo unspecified) [rabeprazole] | Caco-2 | 0
CC(C)N1CCN(c2ccc(C(=O)c3c(-c4ccc(O)cc4)sc4cc(O)ccc34)cc2)CC1 [Y-134] | Caco-2 | 0.6
Cc1onc(O)c1C[C@@H](N)C(=O)O (racemic) [AMPA-(RS)] | Caco-2 | 0

Input line: Lab request: please report drug sensitivity score under test system Caco-2 for CC(=O)NS(=O)(=O)c1ccc(NC(=O)c2ccccc2C(=O)O)cc1 [phthalylsulfacetamide]
Output line: 0

Input line: Identify the measured drug sensitivity score of O=C(CCCN1CCC(n2c(=O)[nH]c3ccccc32)CC1)c1ccc(F)cc1 [benperidol] for Caco-2.
Output line: 0

Input line: // map CC[C@H]1OC(=O)C[C@@H](O)[C@H](C)[C@@H](O[C@@H]2O[C@H](C)[C@@H](O[C@H]3C[C@@](C)(O)[C@@H](O)[C@H](C)O3)[C@H](N(C)C)[C@H]2O)[C@@H](CC=O)C[C@@H](C)C(=O)/C=C/C(C)=C/[C@@H]1CO[C@@H]1O[C@H](C)[C@@H](O)[C@@H](OC)[C@H]1OC [TYLOSIN TARTRATE] to recorded drug sensitivity score (system: Caco-2)
Output line: 8.9
